These measurements were taken from patent US12209087B2.

Biological target: full length AKT E17K (Homo sapiens, UniProt P31749, E17K)
Construct: host or cells: HEK-293 (ATCC CRL-1573)
Sequence (P31749 whole entry E17K): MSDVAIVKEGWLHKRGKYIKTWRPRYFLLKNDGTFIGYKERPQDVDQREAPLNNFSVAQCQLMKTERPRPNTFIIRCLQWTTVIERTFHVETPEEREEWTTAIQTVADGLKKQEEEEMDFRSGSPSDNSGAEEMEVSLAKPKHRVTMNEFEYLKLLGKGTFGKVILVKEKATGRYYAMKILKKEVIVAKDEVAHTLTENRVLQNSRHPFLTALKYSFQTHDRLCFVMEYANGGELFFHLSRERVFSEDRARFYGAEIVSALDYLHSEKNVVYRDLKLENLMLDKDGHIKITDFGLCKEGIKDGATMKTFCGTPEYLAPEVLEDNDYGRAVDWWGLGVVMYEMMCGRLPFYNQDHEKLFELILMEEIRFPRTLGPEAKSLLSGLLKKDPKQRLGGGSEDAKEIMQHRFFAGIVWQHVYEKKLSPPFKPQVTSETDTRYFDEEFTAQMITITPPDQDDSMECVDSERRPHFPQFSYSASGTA
Test: NanoBRET Target Engagement (TE) Assay
Type: cell-based
Settings: competitive tracer displacement in living cells, read-out: AKT1 E17K IC50
Form field: IC50 (one value per entry).

The examples below pair each entry with its known result.
smiles-string: N#Cc1nccc(N2CCN(Cc3ccc(-n4c(-c5cccnc5N)nc5ccc(-c6ccccc6)nc54)cc3)CC23CC3)n1
IC50: 15 to 60 nM

smiles-string: N#Cc1cc(NC2CCN(Cc3ccc(-n4c(-c5cccnc5N)nc5ccc(-c6ccccc6)nc54)cc3)CC2)ccn1
IC50: < 15 nM

smiles-string: N#Cc1nccc(NCc2ccc(-n3c(-c4cccnc4N)nc4cccnc43)cc2)n1
IC50: 600 to 10000 nM

Find the recorded IC50 belonging to N#Cc1cnccc1C(=O)NC1CCN(Cc2ccc(-n3c(-c4cccnc4N)nc4ccc(-c5ccccc5)nc43)cc2)CC1 and report it. 15 to 60 nM

Another: N#Cc1cncc(NCc2ccc(-n3c(-c4cccnc4N)nc4cccnc43)cc2)n1 600 to 10000 nM

Item: N#Cc1cc(N2CCN(Cc3ccc(-n4c(-c5cccnc5N)nc5ccc(-c6ccccc6F)nc54)cc3)CC2)ncn1 < 15 nM

Also need N#Cc1nc(C(=O)N2CCN(Cc3ccc(-n4c(-c5cccnc5N)nc5ccc(-c6ccccc6)nc54)cc3)CC2)cs1 , thanks. < 15 nM

What about N#Cc1nccc(C(=O)NC2CCN(Cc3ccc(-n4c(-c5cccnc5N)nc5ccc(-c6ccccc6)nc54)cc3)CC2)n1 ? < 15 nM

###

// reported IC50 per item
Molecular target: full length AKT E17K (Homo sapiens, UniProt P31749, E17K)
Construct: host or cells: HEK-293 (ATCC CRL-1573)
Experiment: NanoBRET Target Engagement (TE) Assay
Format: cell-based
Conditions: competitive displacement of tracer in cells, read-out: AKT1 E17K IC50

Value lookup for IC50; key = N#Cc1nccc(N2C[C@@H]3C[C@H]2CN3Cc2ccc(-n3c(-c4cccnc4N)nc4ccc(-c5ccccc5)nc43)cc2)n1 15 to 60 nM

###

Target: full length AKT E17K (Homo sapiens, UniProt P31749, E17K)
Construct: host or cells: HEK-293 (ATCC CRL-1573)
Assay: NanoBRET Target Engagement (TE) Assay
Type: cell-based
Conditions: competitive tracer displacement in living cells, read-out: AKT1 E17K IC50
result-type: IC50

Some compounds with known IC50 results, for comparison:
compound: C[C@@H]1CN(Cc2ccc(-n3c(-c4cccnc4N)nc4ccc(-c5ccccc5)nc43)cc2)C[C@@H](C)N1c1cc(C#N)ncn1
IC50: 60 to 600 nM

compound: CC(=O)Nc1cccc(-c2ccc3nc(-c4cccnc4N)n(-c4ccc(CN5CCN(c6cnnc(C#N)c6)CC5)cc4)c3n2)c1
IC50: 60 to 600 nM

compound: CC(=O)Nc1cccc(-c2ccc3nc(-c4cccnc4N)n(-c4ccc(CN5CCN(c6ccc(C#N)nc6)CC5)cc4)c3n2)c1
IC50: 60 to 600 nM

compound: N#Cc1ncc(NCc2ccc(-n3c(-c4cccnc4N)nc4cccnc43)cc2)cn1
IC50: 600 to 10000 nM

compound: N#Cc1ncnc(NC2COCCN(Cc3ccc(-n4c(-c5cccnc5N)nc5ccc(-c6ccccc6)nc54)cc3)C2)n1 (stereo not drawn)
IC50: < 15 nM

Now examine the next entry.
Fill blank: measured IC50 of the compound [2H]C([2H])([2H])N(c1ccnc(C#N)n1)C1CCN(Cc2ccc(-n3c(-c4cccnc4N)nc4ccc(-c5ccccc5)nc43)cc2)CC1 is ____. < 15 nM
